Data provenance: patent US7951838B2

TARGET_UNDER_TEST: BACE (Homo sapiens)
Construct: Cells stably expressing Amyloid Precursor Protein (APP) were plated at a density of 40K cells/well in 96 well plates; endogenous in cells
METHOD_DESCRIPTION: In vitro enzymatic BACE FRET assay (Enzyme Assay)
Format: biochemical
PARTICULARS: pH 4.2, enzyme 0.2 nM, FRET substrate 50 nM
Each record here notes measured IC50.

Reference set, count: 8
• CCc1ccc2c(c1)[C@@H](NC[C@@H](O)[C@H](Cc1ccccc1)Nc1nccc(CC)n1)CC1(CCC1)O2 = 10 to 25 µM
• CCc1ccc2c(c1)[C@@H](NC[C@@H](O)[C@H](Cc1ccccc1)Nc1nc3ccccc3s1)CC1(CCC1)O2 = 10 to 25 µM
• CCc1ccc2c(c1)[C@@H](NC[C@@H](O)[C@H](Cc1ccccc1)Nc1ccccc1F)CC1(CCCC1)O2 = 5 to 10 µM
• CC(C)(C)Cc1cnc2c(c1)[C@@H](NC[C@@H](O)[C@H](Cc1cc(F)cc(F)c1)Nc1nccn3cnnc13)CC1(CCC1)O2 = 0.1 to 1 µM
• CCc1ccc2c(c1)[C@@H](NC[C@@H](O)[C@H](Cc1ccccc1)Nc1ccccc1F)CC1(CCC1)O2 = 5 to 10 µM
• CCc1ccc2c(c1)[C@@H](NC[C@@H](O)[C@H](Cc1ccccc1)Nc1ncccn1)CC1(CCC1)O2 = 10 to 25 µM
• CC(C)(C)Cc1cnc2c(c1)[C@@H](NC[C@H](O)[C@H](Cc1ccccc1)Nc1ccccc1F)CC1(CCC1)O2 = 10 to 25 µM
• CC(C)(C)Cc1cnc2c(c1)[C@@H](NC[C@@H](O)[C@H](Cc1cc(F)cc(F)c1)Nc1ncccn1)CC1(CCC1)O2 = 0.1 to 1 µM

State, in one line, measured IC50 of CC(C)(C)Cc1cnc2c(c1)[C@@H](NC[C@@H](O)[C@H](Cc1ccc(F)cc1)Nc1cc(Cl)ncn1)CC1(CCC1)O2
1 to 5 µM

====

# Lookup of reported pIC50 keyed by entry
TARGET_UNDER_TEST: BACE (Homo sapiens, UniProt P56817)
Construct: Cells stably expressing Amyloid Precursor Protein (APP) were plated at a density of 40K cells/well in 96 well plates; endogenous in cells
Sequence (P56817 46-501): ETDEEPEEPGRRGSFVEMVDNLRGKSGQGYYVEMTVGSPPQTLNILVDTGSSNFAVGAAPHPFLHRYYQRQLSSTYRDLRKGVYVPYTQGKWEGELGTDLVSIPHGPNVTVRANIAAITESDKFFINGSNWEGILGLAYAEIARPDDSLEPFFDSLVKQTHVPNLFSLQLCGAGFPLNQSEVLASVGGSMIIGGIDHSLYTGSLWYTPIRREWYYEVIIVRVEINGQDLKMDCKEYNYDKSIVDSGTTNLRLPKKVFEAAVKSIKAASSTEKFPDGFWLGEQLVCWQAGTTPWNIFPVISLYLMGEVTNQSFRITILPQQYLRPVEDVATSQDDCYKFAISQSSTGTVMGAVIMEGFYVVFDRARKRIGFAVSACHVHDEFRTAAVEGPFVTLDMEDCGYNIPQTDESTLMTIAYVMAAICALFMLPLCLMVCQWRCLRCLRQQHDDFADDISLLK
METHOD_DESCRIPTION: BACE cell-based assay (Cell Assay), inhibition of Aβ40 by sandwich ELISA
PARTICULARS: Aβ40 in conditioned medium of cells stably expressing APP, 24 h incubation
pIC50: −log10 of the molar value.

- CC(C)(C)Cc1cnc2c(c1)[C@@H](NC[C@@H](O)[C@H](Cc1cc(F)cc(F)c1)Nc1nccn3cnnc13)CC1(CCC1)O2 [Example 21]: > 7.00
- CCc1ccc2c(c1)[C@@H](NC[C@@H](O)[C@H](Cc1ccccc1)Nc1ccccc1F)CC1(CCC1)O2 [Example 31]: 4.60 to 5.00

Look up pIC50 of CC(C)(C)Cc1cnc2c(c1)[C@@H](NC[C@@H](O)[C@H](Cc1cc(F)cc(F)c1)Nc1ccnc(Cl)n1)CC1(CCC1)O2 [Example 24] and report it.
6.00 to 7.00

Report measured pIC50; entry is CC(C)(C)Cc1cnc2c(c1)[C@@H](NC[C@H](O)[C@H](Cc1ccccc1)Nc1ccccc1F)CC1(CCC1)O2 [Example 41]
4.60 to 5.00

Indicate its recorded pIC50; the molecule in question is CC(C)(C)Cc1cnc2c(c1)[C@@H](NC[C@@H](O)[C@H](Cc1ccc(F)cc1)Nc1ncnc3ccsc13)CC1(CCC1)O2 [Example 30]
4.60 to 5.00

Could you please provide reported pIC50 for CCc1ccc2c(c1)[C@@H](NC[C@@H](O)[C@H](Cc1ccccc1)Nc1nccc(C(F)(F)F)n1)CC1(CCC1)O2 [Example 33] ? Thanks!
4.60 to 5.00

Check the records and state pIC50 for O[C@H](CN[C@H]1CC2(CCC2)Oc2ccc(Br)cc21)[C@H](Cc1ccccc1)Nc1nccn2cnnc12 [Example 22]
5.00 to 5.30

Hello, please tell me recorded pIC50 for this one: CC(C)(C)Cc1cnc2c(c1)[C@@H](NC[C@@H](O)[C@H](Cc1cc(F)cc(F)c1)Nc1ncccn1)CC1(CCC1)O2 [Example 25]
5.30 to 6.00

Return the recorded pIC50 value; entry: CCc1ccc2c(c1)[C@@H](NC[C@@H](O)[C@H](Cc1ccccc1)Nc1ccccc1F)CC1(CCCC1)O2 [Example 32]
4.60 to 5.00

Report pIC50 for CCc1ccc2c(c1)[C@@H](NC[C@@H](O)[C@H](Cc1ccccc1)Nc1nccc(CC)n1)CC1(CCC1)O2 [Example 37]
5.00 to 5.30

Respond only with pIC50 recorded for CCc1ccc2c(c1)[C@@H](NC[C@@H](O)[C@H](Cc1ccccc1)Nc1nc3ccccc3o1)CC1(CCC1)O2 [Example 36]
5.30 to 6.00

Let me know recorded pIC50 for CCc1ccc2c(c1)[C@@H](NC[C@@H](O)[C@H](Cc1cccc(C#N)c1)Nc1ccccc1F)CC1(CCC1)O2 [Example 27] , thanks.
6.00 to 7.00

Quote pIC50 reported for CSc1nc(Cl)cc(N[C@@H](Cc2ccc(F)cc2)[C@H](O)CN[C@H]2CC3(CCC3)Oc3ncc(CC(C)(C)C)cc32)n1 [Example 34] please.
4.60 to 5.00

Determine from records and report pIC50 for CCOc1c(N[C@@H](Cc2cccc(F)c2)[C@H](O)CN[C@H]2CC3(CCC3)Oc3ncc(CC(C)(C)C)cc32)c(=O)c1=O [Example 45]
6.00 to 7.00

Identify the reported pIC50 for the following entry. CC(C)(C)Cc1cnc2c(c1)[C@@H](NC[C@@H](O)[C@H](Cc1ccc(F)cc1)Nc1ncnc3sccc13)CC1(CCC1)O2 [Example 35]
6.00 to 7.00

Query pIC50 for CCc1ccc2c(c1)[C@@H](NC[C@@H](O)[C@H](Cc1ccccc1)Nc1ccncc1)CC1(CCC1)O2 [Example 44]
5.30 to 6.00

Return reported pIC50. Input molecule: CC(C)(C)Cc1cnc2c(c1)[C@@H](NC[C@@H](O)[C@H](Cc1cc(F)cc(F)c1)Nc1ccccc1F)CC1(CCC1)O2 [Example 26]
4.60 to 5.00

For the molecule CCc1ccc2c(c1)[C@@H](NC[C@@H](O)[C@H](Cc1ccccc1)Nc1ncccn1)CC1(CCC1)O2 [Example 38] , report pIC50.
4.60 to 5.00

Indicate the recorded pIC50 value for this molecule: CCc1ccc2c(c1)[C@@H](NC[C@@H](O)[C@H](Cc1ccccc1)Nc1cccnc1)CC1(CCC1)O2 [Example 43]
4.60 to 5.00

Tell me its pIC50 given CCc1ccc2c(c1)[C@@H](NC[C@@H](O)[C@H](Cc1ccccc1)Nc1ccc(Cl)nn1)CC1(CCC1)O2 [Example 39] as the entry.
4.60 to 5.00

Write down pIC50 measured for item CC(C)(C)Cc1cnc2c(c1)[C@@H](NC[C@@H](O)[C@H](Cc1ccc(F)cc1)Nc1cc(Cl)ncn1)CC1(CCC1)O2 [Example 28]
4.60 to 5.00

Complete the entry with pIC50 for CC(C)(C)Cc1cnc2c(c1)[C@@H](NC[C@@H](O)[C@H](Cc1ccc(F)cc1)Nc1ccnc(Cl)n1)CC1(CCC1)O2 [Example 29]
4.60 to 5.00

Using known records, supply pIC50 for CCc1ccc2c(c1)[C@@H](NC[C@@H](O)[C@H](Cc1ccccc1)Nc1cnccn1)CC1(CCCC1)O2 [Example 40]
4.60 to 5.00
